- Test system: MS2 coat protein
- assay protocol: apparent KD of MS2 coat protein; higher = weaker reporter binding
- recorded conditions: Eterna round: R107; input ligand: tryptophan 2.4 mM
Listing of recorded apparent KD of MS2 coat protein by entry.
Give the number first and the unit second.

AGCCCAUUACAUGAGGAUCACCCAUGUGAUACCAGUCAGGAAACUGACCCUUGGCAGCGCAUGAGGAUCACCCAUGCGCUGGGCA [Omei Theo A Exc A v6]	12.2 nM
AAGAGUUGACAAAAGUCAGCUCAAACCGAAGGAGCGGGAGAAAUCCCAGGUAGGUCGCGGUUACAUGAGGAUCACCCAUGUUCCU [ArgAS 6 #BothOrNeither #OpenEnded]	273 nM
GACCUUGCCUGAAGGAGCGAGGUAAAUAGGGUUGAGCAUACAUGAGGAUCACCCAUGUGGCCUCAGGUAGGUCGCAGGUAGGACA [Exclusion Arginine B GF30]	114 nM

Documented apparent KD of MS2 coat protein of UGUAUGGACUGAAGGAGCGGGUAAUAAAUCUGAGGAUCACCCAGGUAAUAGGCGAAAGCCGCCCAGGUAGGUCGCAGUCCAUACU : 23.1 nM

Documented apparent KD of MS2 coat protein of UUUUAAUGUGCGGAUACCAGCCGUACAUGAGGAUCACCCAUGUCGCUGUUGAGCAUCGUCGGCCCUUGGCAGCUGUGUGUAGUUG [#27 Same State - Theophylline B] : 42.3 nM

Documented apparent KD of MS2 coat protein of AGAGUUAGACAAAAGUCUAGCUCACCAGAAGGAGCGUCCGAAAGGACAGGUAGGUCGCUGGUGCUUGAGGAUCACCCAAGUUCCU [ArgAS 22 #OpenEnded #AlternativeMS2] : 128 nM

====

Listing of recorded apparent KD of MS2 coat protein by entry.
- Tested on: MS2 coat protein
- assay protocol: apparent KD of MS2 coat protein; designed switch direction (-1 OFF switch, 1 ON switch): -1; higher = weaker reporter binding
- recorded conditions: input ligand: none
Numbers only; they are read as µM.

GCAGACGUAGUGAGGAUAUGCUCUACCUCGGUAGAGCAGAAGGCACAUGAGGAUCACCCAUGUGACUCCUCAUC [Omei Ex4B B18] (Eterna round: R97, puzzle: Brourd's mod of Exclusion 4)	0.0201
AAGUAGGAUGUUAGGAUAUCGCCCUCGCAAUAGGGCGAGAAGGGACAUGAGGAUCACCCAUGUAGGCGAUAGAA [Laedesed] (Eterna round: R97, puzzle: Brourd's mod of Exclusion 4)	0.0169

Documented apparent KD of MS2 coat protein of AGUUGGCGAGGAUAUACAUGAGGAUCACCCAUGUGAGAGAUACUAGUGAGGUCGAUUGGUAGAAGGCGCUGACA [Mat X3R4 m19] (Eterna round: R97, puzzle: Exclusion 3) : 0.105

====

- System: MS2 coat protein
- assay protocol: apparent KD of MS2 coat protein; higher = weaker reporter binding
- recorded conditions: Eterna round: R107; input ligand: tryptophan 2.4 mM
Assign classes using reported apparent KD of MS2 coat protein values and the ranges I: < 30 nM; II: ≥ 30 nM and < 90 nM; III: ≥ 90 nM, please.

Worked examples, 5 sequences total:
CCUGAUAACUGAAGGAGCGAGAAACCCUACAUGAGGAUCACCCAUGUAUACACGGGAACUUCUCAGGUAGGUCGCAGUAUGUCGG [Rienat]	III
GCACAAGAUGGAAGGAGCGCUGGAAAAGGUCACAUGAGGAUCACCCAUGUUCUCCUAACCGAGCAGGUAGGUCGCCAUCUUGUGC [SSAB NP+V+V2 #1]	I
AAUAAACAUGAGGAUCACCCAUGUAUGGAAGGAGCGGUGAAUAAACCAGGUAGGUCGCCAGUGUGAGGGUCAUCUAUGUAAUAAA [Exclusion - Arginine A (Freestyle 2)]	II
GGUGGCUGGAUCGAUACCAGCCACCACCGAUAGACCACAUGAGGAUCACCCAUGUUGGGUGGCCCUUGGCAGCGGUCCAGCUGCC [#1 Same State - Theophylline B Attempt #5 (HarryS)]	III
AACAUGAGGAUCACCCAUGUCAUGUUGGAUACCAGCCAAUAAUAAGGCCCUUGGCAGCUAUAGAUCGAUGAUCCAUGAGGAUCAC [Exclusion Theophylline A]	II

Kindly review the next sequence as well.
[ask] Just checking, what class would you give AUCGUACCUGAUGAUACCAGCAAUUGCUCGUAACAUGAGGAUCACCCAUGUGAUCAGUGAUGCCCUUGGCAGCAUGAUCGGUGCA [Same State - Theophylline B (Freestyle 19)] here?
[reply] III
